Values were extracted from ChEMBL document CHEMBL5291721.

# Target of assay: Muscarinic acetylcholine receptor M1 (Homo sapiens, UniProt P11229); note: assay procedure not described here
# Sequence (P11229 whole entry): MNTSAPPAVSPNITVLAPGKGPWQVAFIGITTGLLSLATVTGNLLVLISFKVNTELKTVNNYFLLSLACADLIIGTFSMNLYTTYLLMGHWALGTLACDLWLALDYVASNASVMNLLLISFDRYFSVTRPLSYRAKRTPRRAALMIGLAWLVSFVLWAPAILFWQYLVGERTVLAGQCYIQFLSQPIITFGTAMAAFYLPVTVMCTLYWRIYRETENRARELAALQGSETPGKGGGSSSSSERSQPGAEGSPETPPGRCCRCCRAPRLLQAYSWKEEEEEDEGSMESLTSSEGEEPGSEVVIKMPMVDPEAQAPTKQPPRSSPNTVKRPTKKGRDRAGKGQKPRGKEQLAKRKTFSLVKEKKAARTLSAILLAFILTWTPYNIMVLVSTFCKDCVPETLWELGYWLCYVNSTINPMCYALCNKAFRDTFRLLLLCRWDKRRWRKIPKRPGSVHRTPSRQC
# Assay type: functional
Readout kind: AC50

{"Molecule": "Cc1nc(Nc2ncc(C(=O)Nc3c(C)cccc3Cl)s2)cc(N2CCN(CCO)CC2)n1", "AC50": "> 30 µM"}
{"Molecule": "O=c1[nH]c2ccccc2n1CCCN1CCN(C(c2ccccc2)c2ccccc2)CC1 [OXATOMIDE]", "AC50": "5.8 µM"}

Ask | Reported AC50 for CCOc1cc([C@@H](CS(C)(=O)=O)N2C(=O)c3cccc(NC(C)=O)c3C2=O)ccc1OC : what is it?
Reply | > 30 µM

---

# Target of assay: Progesterone receptor (Homo sapiens, UniProt P06401)
# Sequence (P06401 whole entry): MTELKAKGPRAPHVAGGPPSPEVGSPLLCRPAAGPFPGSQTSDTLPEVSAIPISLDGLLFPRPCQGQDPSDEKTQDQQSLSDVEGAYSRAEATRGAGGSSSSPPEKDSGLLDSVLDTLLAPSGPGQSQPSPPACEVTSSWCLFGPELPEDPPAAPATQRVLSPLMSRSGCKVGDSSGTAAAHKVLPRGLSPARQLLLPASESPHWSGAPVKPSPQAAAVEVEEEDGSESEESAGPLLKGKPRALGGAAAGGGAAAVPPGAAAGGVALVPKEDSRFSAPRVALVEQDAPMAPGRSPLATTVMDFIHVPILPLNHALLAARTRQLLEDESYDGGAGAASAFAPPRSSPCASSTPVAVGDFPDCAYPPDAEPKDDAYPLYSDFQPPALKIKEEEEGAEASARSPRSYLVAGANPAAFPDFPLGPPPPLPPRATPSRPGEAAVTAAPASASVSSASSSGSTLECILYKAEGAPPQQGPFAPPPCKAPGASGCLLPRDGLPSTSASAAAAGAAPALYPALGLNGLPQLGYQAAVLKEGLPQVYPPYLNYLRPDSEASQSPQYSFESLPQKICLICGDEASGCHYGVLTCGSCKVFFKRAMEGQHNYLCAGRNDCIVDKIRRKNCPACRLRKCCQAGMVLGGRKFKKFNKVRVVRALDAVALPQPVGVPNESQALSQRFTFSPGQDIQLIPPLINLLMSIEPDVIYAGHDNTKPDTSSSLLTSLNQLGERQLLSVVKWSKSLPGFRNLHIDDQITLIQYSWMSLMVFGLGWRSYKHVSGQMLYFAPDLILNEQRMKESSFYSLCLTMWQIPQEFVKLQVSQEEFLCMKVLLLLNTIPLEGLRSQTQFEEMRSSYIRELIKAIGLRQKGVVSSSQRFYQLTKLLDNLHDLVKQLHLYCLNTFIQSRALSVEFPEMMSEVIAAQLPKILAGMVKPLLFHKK
# Type: functional
For each entry below, report its AC50 value.

Examples with answers:
{"Compound": "C/C=C(/C(=C/C)c1ccc(O)cc1)c1ccc(O)cc1", "AC50": "> 30 µM"}
{"Compound": "CC1(C)S[C@@H]2[C@H](NC(=O)C(C(=O)O)c3ccccc3)C(=O)N2[C@H]1C(=O)O (some centres not stated)", "AC50": "> 30 µM"}
{"Compound": "CCN1CC(CCN2CCOCC2)C(c2ccccc2)(c2ccccc2)C1=O (configuration not stated)", "AC50": "> 30 µM"}

Please go through the list and note AC50 for each compound.
1. COc1cc2[nH]c(C)c(CCN3CCN(c4ccccc4)CC3)c2cc1OC
2. CN(CCOc1ccc(CC2SC(=O)NC2=O)cc1)c1ccccn1 (configuration not stated)

Reply |
["> 30 µM", "> 30 µM"]

Please go through the list and note AC50 for each compound.
1. CCCN1CCCC[C@H]1C(=O)Nc1c(C)cccc1C
2. CCCc1cc(=O)[nH]c(=S)[nH]1
3. COc1ccccc1OC1(C)OC(=O)c2ccccc2O1 (configuration not stated)

Reply |
["> 30 µM", "> 10 µM", "> 30 µM"]

Please go through the list and note AC50 for each compound.
1. CC(C)(Oc1ccc(CCNC(=O)c2ccc(Cl)cc2)cc1)C(=O)O [BEZAFIBRATE]
2. C[N+]1(C)CCC(=C(c2ccccc2)c2ccccc2)CC1

Reply |
["> 10 µM", "> 10 µM"]

Please go through the list and note AC50 for each compound.
1. O=S1(=O)CCN(CN2CCS(=O)(=O)NC2)CN1
2. COC(=O)[C@H]1[C@H]2C[C@@H]3c4[nH]c5cc(OC)ccc5c4CCN3C[C@H]2C[C@@H](OC(=O)c2cc(OC)c(OC)c(OC)c2)[C@@H]1OC

Reply |
> 30 µM
> 10 µM

---

For each entry below, report its AC50 value.
# Target of assay: Thromboxane A2 receptor (Homo sapiens, UniProt P21731); note: assay procedure not described here
# Sequence (P21731 whole entry): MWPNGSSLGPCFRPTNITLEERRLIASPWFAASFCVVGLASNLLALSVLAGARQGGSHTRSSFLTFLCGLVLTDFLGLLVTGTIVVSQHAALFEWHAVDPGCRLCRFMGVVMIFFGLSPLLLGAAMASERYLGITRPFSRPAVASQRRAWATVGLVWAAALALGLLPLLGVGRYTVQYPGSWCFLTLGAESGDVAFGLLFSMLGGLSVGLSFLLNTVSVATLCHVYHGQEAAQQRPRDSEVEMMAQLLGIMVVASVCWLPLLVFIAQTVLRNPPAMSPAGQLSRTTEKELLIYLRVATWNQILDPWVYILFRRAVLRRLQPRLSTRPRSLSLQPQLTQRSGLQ

Examples with answers:
{"Molecule": "CCCN1CCCC[C@H]1C(=O)Nc1c(C)cccc1C", "AC50": "> 30 µM"}
{"Molecule": "O=C(CCCN1CCC(O)(c2ccc(Br)cc2)CC1)c1ccc(F)cc1", "AC50": "> 30 µM"}
{"Molecule": "CN[C@@H](C)[C@@H](O)c1ccccc1", "AC50": "> 30 µM"}
{"Molecule": "Cc1ccccc1-n1c(CF)nc2ccc(N)cc2c1=O", "AC50": "> 30 µM"}
{"Molecule": "OC[C@H]1O[C@@H](Oc2cc(O)cc(/C=C/c3ccc(O)cc3)c2)[C@H](O)[C@@H](O)[C@@H]1O", "AC50": "> 30 µM"}
{"Molecule": "CC(C(=O)O)c1ccc2oc(-c3ccc(Cl)cc3)nc2c1 (stereo not given)", "AC50": "> 30 µM"}
{"Molecule": "C[C@]12C/C(=C/O)C(=O)C[C@@H]1CC[C@@H]1[C@@H]2CC[C@@]2(C)[C@H]1CC[C@]2(C)O", "AC50": "> 30 µM"}
{"Molecule": "Cn1cc(C(=O)[C@@H]2CCc3nc[nH]c3C2)c2ccccc21", "AC50": "> 30 µM"}

Please go through the list and note AC50 for each molecule.
1. CN(C)CCCN1c2ccccc2CCc2ccccc21
2. O=c1c(O)c(-c2ccc(O)c(O)c2)oc2cc(O)cc(O)c12
3. C[C@@H]1C[C@H]2[C@@H]3CCC4=CC(=O)C=C[C@]4(C)[C@@]3(F)[C@@H](O)C[C@]2(C)[C@@]1(O)C(=O)CO
4. C[N+](C)(C)CCOP(=O)([O-])OC[C@H](O)CO

Reply |
> 30 µM
> 30 µM
> 30 µM
> 30 µM

Please go through the list and note AC50 for each molecule.
1. COc1cc(C(=O)NC2CCCNC2)cc(OC)c1OC (stereo not given) [TROXIPIDE]
2. Cc1ccnc2c1NC(=O)c1cccnc1N2C1CC1
3. O=C(O)Cc1ccccc1Nc1c(Cl)cccc1Cl

Reply |
1: > 30 µM; 2: > 30 µM; 3: > 30 µM

---

Observed AC50, system Sodium-dependent dopamine transporter (Homo sapiens, UniProt Q01959). Note: assay procedure not described here.

{"Compound": "CC(O)(CS(=O)(=O)c1ccc(F)cc1)C(=O)Nc1ccc(C#N)c(C(F)(F)F)c1 (centres undefined) [BICALUTAMIDE]", "Target of assay": "Sodium-dependent dopamine transporter (Homo sapiens, UniProt Q01959)", "AC50": "> 30 µM"}
{"Compound": "CCOC(=O)c1ccc(C#Cc2ccc3c(c2)C(C)(C)CCS3)nc1", "Target of assay": "Sodium-dependent dopamine transporter (Homo sapiens, UniProt Q01959)", "AC50": "> 30 µM"}
{"Compound": "NS(=O)(=O)c1cc2c(cc1Cl)N=C(CSCc1ccccc1)NS2(=O)=O [BENZTHIAZIDE]", "Target of assay": "Sodium-dependent dopamine transporter (Homo sapiens, UniProt Q01959)", "AC50": "> 10 µM"}
{"Compound": "C=C1c2cccc(O)c2C(=O)C2=C(O)[C@]3(O)C(=O)C(C(N)=O)=C(O)[C@@H](N(C)C)[C@@H]3[C@@H](O)[C@H]12", "Target of assay": "Sodium-dependent dopamine transporter (Homo sapiens, UniProt Q01959)", "AC50": "> 10 µM"}

Please go through the list and note AC50 for each compound.
1. CCC(=O)O[C@]1(C(=O)CCl)[C@@H](C)C[C@H]2[C@@H]3CCC4=CC(=O)C=C[C@]4(C)[C@@]3(F)[C@@H](O)C[C@@]21C [CLOBETASOL PROPIONATE]
2. C[N+]12CCC(CC1)C(OC(=O)C(O)(c1ccccc1)c1ccccc1)C2 (centres undefined)
3. CO/N=C(\C(=O)N[C@@H]1C(=O)N2C(C(=O)O)=CCS[C@H]12)c1csc(N)n1
4. O=C(O)Cc1ccccc1Oc1ccc(Cl)cc1Cl
5. CCC[C@@H]1C[C@@H](C(=O)N[C@@H]([C@H]2O[C@H](SC)[C@H](O)[C@@H](O)[C@H]2O)[C@@H](C)O)N(C)C1

Reply |
1: > 30 µM; 2: > 30 µM; 3: > 30 µM; 4: > 10 µM; 5: > 10 µM

---

Observed AC50, system Progesterone receptor (Homo sapiens, UniProt P06401).

Examples with answers:
{"Compound": "CCOC(=O)C(C)(C)Oc1ccc(Cl)cc1 [CLOFIBRATE]", "Target of assay": "Progesterone receptor (Homo sapiens, UniProt P06401)", "Readout kind": "AC50", "Recorded result": "> 30 µM"}
{"Compound": "CN(C)CCCN1c2ccccc2CCc2ccccc21 [IMIPRAMINE]", "Target of assay": "Progesterone receptor (Homo sapiens, UniProt P06401)", "Readout kind": "AC50", "Recorded result": "> 30 µM"}
{"Compound": "CC[C@@H](CO)NC(=O)[C@@H]1C=C2c3cccc4c3c(cn4C)C[C@H]2N(C)C1 [METHYSERGIDE]", "Target of assay": "Progesterone receptor (Homo sapiens, UniProt P06401)", "Readout kind": "AC50", "Recorded result": "16 µM"}

Please go through the list and note AC50 for each compound.
1. CCOC(=O)c1ccc(C#Cc2ccc3c(c2)C(C)(C)CCS3)nc1 [TAZAROTENE]
2. Cc1ccnc2c1NC(=O)c1cccnc1N2C1CC1 [NEVIRAPINE]

Reply |
["> 30 µM", "> 30 µM"]

---

Observed AC50, system Kappa-type opioid receptor (Homo sapiens). Note: assay procedure not described here.

{"Compound": "c1ccc(C2(N3CCCCC3)CCCCC2)cc1", "AC50": "> 30 µM"}

Please go through the list and note AC50 for each compound.
1. Cc1ccccc1-n1c(CF)nc2ccc(N)cc2c1=O
2. O=C(O)Cc1ccccc1Oc1ccc(Cl)cc1Cl
3. CC(=O)c1ccc(S(=O)(=O)NC(=O)NC2CCCCC2)cc1 [ACETOHEXAMIDE]

Reply |
1: > 10 µM; 2: > 10 µM; 3: > 10 µM

Please go through the list and note AC50 for each compound.
1. CC(C)NC[C@H](O)COc1ccc(CC(N)=O)cc1
2. CN1CCN=C(c2ccccc2)c2cc(Cl)ccc21
3. CCCN(CCC)S(=O)(=O)c1ccc(C(=O)O)cc1

Reply |
> 10 µM
0.99 µM
> 10 µM
